These data points were gathered from patent US20150307520A1.

Measured PI3Kγ IH % @ 1 uM, listed per entry.
Target: p110γ (Homo sapiens)
Sequence (P48736 whole entry): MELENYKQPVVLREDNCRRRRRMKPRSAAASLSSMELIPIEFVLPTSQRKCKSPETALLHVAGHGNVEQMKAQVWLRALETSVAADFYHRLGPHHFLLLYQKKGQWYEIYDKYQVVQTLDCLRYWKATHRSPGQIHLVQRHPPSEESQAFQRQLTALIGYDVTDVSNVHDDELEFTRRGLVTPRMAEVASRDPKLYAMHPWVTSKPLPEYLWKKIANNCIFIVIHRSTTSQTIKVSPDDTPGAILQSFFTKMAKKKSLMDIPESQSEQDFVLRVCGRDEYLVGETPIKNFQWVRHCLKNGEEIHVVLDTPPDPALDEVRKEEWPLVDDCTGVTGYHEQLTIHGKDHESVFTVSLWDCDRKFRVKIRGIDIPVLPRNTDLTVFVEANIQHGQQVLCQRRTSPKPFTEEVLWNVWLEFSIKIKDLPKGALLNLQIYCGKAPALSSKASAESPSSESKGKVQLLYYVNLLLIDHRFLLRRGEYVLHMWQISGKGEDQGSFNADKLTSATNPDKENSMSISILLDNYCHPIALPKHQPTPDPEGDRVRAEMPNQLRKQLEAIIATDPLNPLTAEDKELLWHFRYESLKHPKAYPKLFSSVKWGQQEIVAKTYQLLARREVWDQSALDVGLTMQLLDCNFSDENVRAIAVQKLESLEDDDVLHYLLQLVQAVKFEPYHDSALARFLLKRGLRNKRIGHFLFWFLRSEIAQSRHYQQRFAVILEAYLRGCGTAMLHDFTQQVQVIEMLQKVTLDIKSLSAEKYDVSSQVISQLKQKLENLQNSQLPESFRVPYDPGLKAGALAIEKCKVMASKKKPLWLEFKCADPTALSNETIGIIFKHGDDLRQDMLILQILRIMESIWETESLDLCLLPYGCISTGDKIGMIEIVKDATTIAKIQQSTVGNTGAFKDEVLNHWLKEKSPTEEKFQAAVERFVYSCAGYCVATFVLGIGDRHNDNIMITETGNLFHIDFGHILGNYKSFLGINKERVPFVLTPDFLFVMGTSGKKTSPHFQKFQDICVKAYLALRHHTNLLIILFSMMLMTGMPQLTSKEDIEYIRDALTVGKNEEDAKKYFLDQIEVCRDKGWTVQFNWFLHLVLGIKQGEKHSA
Test: Transcreener KINASE Assay, kinase inhibition of p110γ
Format: biochemical
Conditions: 1 uM test compound
Write it as a number; the unit % goes unstated.

// worked examples, PI3Kγ IH % @ 1 uM included
- compound: "Cc1ccn2nc([C@@H]3CCCN3c3ncnc4[nH]cnc34)n(-c3ccccc3)c(=O)c12"
  unit.string: "%"
  PI3Kγ IH % @ 1 uM: 96.6
- compound: "CCC(Nc1ncnc(N)c1C#N)c1cn2ccc(Cl)c2c(=O)n1-c1cccc(F)c1 (stereo not shown)"
  unit.string: "%"
  PI3Kγ IH % @ 1 uM: 76.4
- compound: "C[S+]([O-])c1c[nH]c2ncnc(N3CC[C@H]3c3nn4ccc(F)c4c(=O)n3-c3ccccc3)c12 (stereo partly shown)"
  unit.string: "%"
  PI3Kγ IH % @ 1 uM: 84.2
- compound: "CSc1n[nH]c2ncnc(N3CC[C@H]3c3nn4ccc(Cl)c4c(=O)n3-c3ccccc3)c12"
  unit.string: "%"
  PI3Kγ IH % @ 1 uM: 88.1
- compound: "N#Cc1c[nH]c2ncnc(N3CCC[C@H]3c3nn4ccc(C5CC5)c4c(=O)n3-c3ccccc3)c12"
  unit.string: "%"
  PI3Kγ IH % @ 1 uM: 89.3

What value of PI3Kγ IH % @ 1 uM has been reported for the following compound? `N#Cc1c[nH]c2ncnc(N3CC[C@H]3c3nn4ccc(Cl)c4c(=O)n3-c3ccccn3)c12`
94.6

# query: PI3Kγ IH % @ 1 uM of entry `CS(=O)(=O)[C@H]1C[C@@H](c2nn3ccc(Cl)c3c(=O)n2-c2ccccc2)N(c2ncnc3[nH]cnc23)C1`
86.8
